# credit: ChEMBL document CHEMBL3351631

Catalogue of pIC50 readings, one per entry.
System Under Test: UniProtKB P10415
Sequence (P10415 whole entry): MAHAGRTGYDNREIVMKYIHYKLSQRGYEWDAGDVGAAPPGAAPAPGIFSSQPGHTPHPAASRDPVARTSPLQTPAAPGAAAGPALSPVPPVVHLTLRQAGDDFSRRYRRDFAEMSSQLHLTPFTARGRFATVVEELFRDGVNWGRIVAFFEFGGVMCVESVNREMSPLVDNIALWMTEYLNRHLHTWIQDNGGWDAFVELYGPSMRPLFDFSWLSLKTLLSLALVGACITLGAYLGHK
The meaning of pIC50 here: minus log10 of the concentration in molar units.

# Smi, Value Measured
records = [
    ("O=C(NS(=O)(=O)c1ccc(N[C@H](CCN2CCOCC2)CSc2ccccc2)c(S(=O)(=O)C(F)(F)F)c1)c1ccc(N2CCC(Oc3ccccc3-c3ccc(Cl)cc3)CC2)cc1", 6.60),
]

Lab request: please report pIC50 under test system UniProtKB P10415 for `O=C(NS(=O)(=O)c1ccc(N[C@H](CCN2CCOCC2)CSc2ccccc2)c(S(=O)(=O)C(F)(F)F)c1)c1ccc(N2CCC(Sc3ccccc3-c3ccc(Cl)cc3)CC2)cc1`
7.21

Lab request: please report pIC50 under test system UniProtKB P10415 for `O=C(NS(=O)(=O)c1ccc(N[C@H](CCN2CCOCC2)CSc2ccccc2)c(S(=O)(=O)C(F)(F)F)c1)c1ccc(N2CCN(Cc3cccnc3-c3ccc(Cl)cc3)CC2)cc1`
7.59

Lab request: please report pIC50 under test system UniProtKB P10415 for `O=C(NS(=O)(=O)c1ccc(N[C@H](CCN2CCOCC2)CSc2ccccc2)c(S(=O)(=O)C(F)(F)F)c1)c1ccc(N2CCP(=O)(Cc3ccccc3-c3ccc(Cl)cc3)CC2)cc1`
7.27

Lab request: please report pIC50 under test system UniProtKB P10415 for `O=C(NS(=O)(=O)c1ccc(N[C@H](CCN2CCOCC2)CSc2ccccc2)c(S(=O)(=O)C(F)(F)F)c1)c1ccc(N2CCC(CO)(Cc3ccccc3-c3ccc(Cl)cc3)CC2)cc1`
7.23

Lab request: please report pIC50 under test system UniProtKB P10415 for `O=C(NS(=O)(=O)c1ccc(N[C@H](CCN2CCOCC2)CSc2ccccc2)c(S(=O)(=O)C(F)(F)F)c1)c1ccc(N2CCN(Cc3ccccc3-c3ccc(Cl)cc3)CC2)cc1`
7.96

###

Test system: RS4-11
Protocol Description: Induction of apoptosis in human RS4:11 cells overexpressing BCL-2 assessed as caspase 3/7 activation after 6 hrs by quantitative luminescence assay
Type: functional, cell-based
Condition Description: RS4-11, 6 h
pEC50: −log10 of the molar value.
Could you label it 1 if measured pEC50 is 6 or higher, and -1 otherwise?

# Smi, Assigned Class
rows = [
    ("O=C(NS(=O)(=O)c1ccc(N[C@H](CCN2CCOCC2)CSc2ccccc2)c(S(=O)(=O)C(F)(F)F)c1)c1ccc(N2CCC([S@+]([O-])c3ccccc3-c3ccc(Cl)cc3)CC2)cc1", -1),
]

Textbook exercise: given the entry `CN(C)CCOc1cccc(-c2ccc(Cl)cc2)c1CN1CCN(c2ccc(C(=O)NS(=O)(=O)c3ccc(N[C@H](CCN4CCOCC4)CSc4ccccc4)c(S(=O)(=O)C(F)(F)F)c3)cc2)CC1` , state whether its pEC50 is greater than or equal to 6.
1

Textbook exercise: given the entry `O=C(NS(=O)(=O)c1ccc(N[C@H](CCN2CCOCC2)CSc2ccccc2)c(S(=O)(=O)C(F)(F)F)c1)c1ccc(N2CCN(Cc3ccncc3-c3ccc(Cl)cc3)CC2)cc1` , state whether its pEC50 is greater than or equal to 6.
1

Textbook exercise: given the entry `O=C(NS(=O)(=O)c1ccc(N[C@H](CCN2CCOCC2)CSc2ccccc2)c(S(=O)(=O)C(F)(F)F)c1)c1ccc(N2CCN(Cc3ccccc3-c3ccc(Cl)cc3)CC2)nn1` , state whether its pEC50 is greater than or equal to 6.
1

Textbook exercise: given the entry `CC1(C)CCC(c2ccc(Cl)cc2)=C(CN2CCN(c3ccc(C(=O)NS(=O)(=O)c4ccc(N[C@H](CCN5CCOCC5)CSc5ccccc5)c(S(=O)(=O)C(F)(F)F)c4)cc3)CC2)C1` , state whether its pEC50 is greater than or equal to 6.
1

Textbook exercise: given the entry `O=C(NS(=O)(=O)c1ccc(N[C@H](CCN2CCOCC2)CSc2ccccc2)c(S(=O)(=O)C(F)(F)F)c1)c1ccc(N2CC3(CN(Cc4ccccc4-c4ccc(Cl)cc4)C3)C2)cc1` , state whether its pEC50 is greater than or equal to 6.
1
